Reported half-life at 10 μM values are given for each entry in this list.
# Test description: Metabolic stability assay, human liver microsomes
# Format: in vitro ADME
# Condition parameters: both sexes, liver microsomes; human microsomes, 10 μM, 1 mg/ml protein, 37° C.; read-out: Metabolic Stability T ½ [min] hum

> print(dat)
                                item.smiles  meas.value
1  COc1ccc2c(c1)-c1cccc(c1)C(=O)N(C)[C@H](C(=O)NC1CC1)CCC(=O)N[C@H](C)CO2    > 60 min
2  COc1ccc2c(c1)-c1cccc(c1)C(=O)N(C)[C@H](C(N)=O)CCC(=O)N[C@H](C)CO2    > 60 min
3  C[C@H]1COc2cccc(c2)-c2cccc(c2)C(=O)N(C)[C@H](C(N)=O)CCC(=O)N1    > 60 min
4  CNC(=O)[C@@H]1CCC(=O)N[C@@H](C)COc2cccc(c2)-c2cccc(c2)C(=O)N1C    > 60 min

Could you tell me which half-life at 10 μM is on file for COc1ccc2c(c1)-c1cccc(c1)C(=O)N(C)[C@H](C(=O)O)CCC(=O)N[C@H](C)CO2 ?
> 60 min

Could you tell me which half-life at 10 μM is on file for C[C@H]1COc2cccc(c2)-c2cccc(c2)C(=O)N(C)[C@H](C(=O)NCCN(C)C)CCC(=O)N1 ?
> 60 min

Could you tell me which half-life at 10 μM is on file for C[C@H]1COc2cccc(c2)-c2cccc(c2)C(=O)N(C)[C@H](C(=O)NC2CC2)CCC(=O)N1 ?
> 60 min
